B1: KCNAB2 (parent)
chain: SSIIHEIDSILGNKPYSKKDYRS

- Variants of: B1
- METHOD_NOTES: protein stability index of a GFP-peptide fusion (GPS, HEK-293T) (PSI 1-6); higher = more stable;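 further: lentivirally expressed fusions sorted by FACS into six bins by GFP to DsRed ratio, PSI derived from sequencing read proportions per bin multiplied by bin number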
- CONDITION_PARAMETERS: c terminus: native
Measured protein stability index accompanies every entry in the list below.
# answer = number (no unit)

Guide cases for protein stability index, answers given:
- MUTANT_DESIGNATION: "G12V"
  protein stability index: 2.76
- MUTANT_DESIGNATION: "I10T"
  protein stability index: 3.89
- MUTANT_DESIGNATION: "G12Q"
  protein stability index: 3.16
- MUTANT_DESIGNATION: "Y21G"
  protein stability index: 3.37
- MUTANT_DESIGNATION: "E6F"
  protein stability index: 3.61
- MUTANT_DESIGNATION: "N13Q"
  protein stability index: 2.63
- MUTANT_DESIGNATION: "K19A"
  protein stability index: 3.55
- MUTANT_DESIGNATION: "S2Q"
  protein stability index: 3.07
- MUTANT_DESIGNATION: "S2F"
  protein stability index: 2.4
- MUTANT_DESIGNATION: "D20A"
  protein stability index: 2.14

Just so you know, measured protein stability index for I3A came out at 3.94
